test system: LG0567-F671-PDC KRAS tumor spheroid viability; assay: Anticancer human tumor LG0567-F671-PDC patient-derived lung adenocarcinoma cell line growth inhibition [KRAS2]; details: second compound 0.316 µM; first compound 0.01 µM; active compounds read low; spheroids with HUVEC and MSC
Consider the following compounds; for each one, report its viability, T/C.

**Q:** Retrieve viability, T/C measured for CC(=O)OC12COC1CC(O)C1(C)C(=O)C(O)C3=C(C)C(OC(=O)C(O)C(NC(=O)OC(C)(C)C)c4ccccc4)CC(O)(C(OC(=O)c4ccccc4)C21)C3(C)C (stereo unspecified) + C=CC(=O)N1CCN(c2nc(OCC3CCCN3C)nc3c2CCN(c2cccc4cccc(C)c24)C3)CC1CC#N and print it.
**A:** 15.8%

**Q:** Retrieve viability, T/C measured for CC(=O)OC12COC1CC(O)C1(C)C(=O)C(O)C3=C(C)C(OC(=O)C(O)C(NC(=O)OC(C)(C)C)c4ccccc4)CC(O)(C(OC(=O)c4ccccc4)C21)C3(C)C (stereo unspecified) + C=CC(=O)N1CCN(c2nc(=O)n(-c3c(C)ccnc3C(C)C)c3nc(-c4c(O)cccc4F)c(F)cc23)C(C)C1 and print it.
**A:** 13.7%

**Q:** Retrieve viability, T/C measured for CC(=O)OC12COC1CC(O)C1(C)C(=O)C(O)C3=C(C)C(OC(=O)C(O)C(NC(=O)OC(C)(C)C)c4ccccc4)CC(O)(C(OC(=O)c4ccccc4)C21)C3(C)C (stereo unspecified) + COc1cc2nc(C)nc(NC(C)c3cc(N)cc(C(F)(F)F)c3)c2cc1OC1CCOC1 and print it.
**A:** 48.6%

**Q:** Retrieve viability, T/C measured for Cn1ncnc1[C@H]1c2n[nH]c(=O)c3cc(F)cc(c23)N[C@@H]1c1ccc(F)cc1 + C=CC(=O)N1CCN(c2nc(OCC3CCCN3C)nc3c2CCN(c2cccc4cccc(C)c24)C3)CC1CC#N and print it.
**A:** 25.8%

**Q:** Retrieve viability, T/C measured for CC(C)n1nc(-c2ccc3oc(N)nc3c2)c2c(N)ncnc21 + CNCc1ccccc1-c1csc(C(C)Nc2nc(C)nc3cc(OC)c(OC)cc23)c1 and print it.
**A:** 49%

**Q:** Retrieve viability, T/C measured for CC(=O)OC12COC1CC(O)C1(C)C(=O)C(O)C3=C(C)C(OC(=O)C(O)C(NC(=O)OC(C)(C)C)c4ccccc4)CC(O)(C(OC(=O)c4ccccc4)C21)C3(C)C (stereo unspecified) + CNCc1ccccc1-c1csc(C(C)Nc2nc(C)nc3cc(OC)c(OC)cc23)c1 and print it.
**A:** 35.6%

---

Consider the following compounds; for each one, report its viability, T/C.
system: LG0567-F671-PDC KRAS tumor spheroid viability; assay: Anticancer human tumor LG0567-F671-PDC cell line growth inhibition [KRAS2]; conditions: second compound 0.316 µM; first compound 0.01 µM; active compounds read low; spheroids with HUVEC and MSC;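 further: drug exposure lasted seven days after spheroids formed for three days; 100% = DMSO vehicle control viability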

**Q:** Retrieve viability, T/C measured for CN(C)C/C=C/C(=O)Nc1cc2c(Nc3ccc(F)c(Cl)c3)ncnc2cc1O[C@H]1CCOC1 + COc1cc2nc(C)nc(NC(C)c3cc(N)cc(C(F)(F)F)c3)c2cc1OC1CCOC1 and print it.
**A:** 40.8%

**Q:** Retrieve viability, T/C measured for CC(=O)Nc1cccc(-n2c(=O)n(C3CC3)c(=O)c3c(Nc4ccc(I)cc4F)n(C)c(=O)c(C)c32)c1 + CC1OCC2(CCN(c3cnc(Sc4ccnc(N)c4Cl)c(N)n3)CC2)C1N and print it.
**A:** 14.9%

**Q:** Retrieve viability, T/C measured for CC(=O)OC12COC1CC(O)C1(C)C(=O)C(O)C3=C(C)C(OC(=O)C(O)C(NC(=O)OC(C)(C)C)c4ccccc4)CC(O)(C(OC(=O)c4ccccc4)C21)C3(C)C (stereo not given) + CC1OCC2(CCN(c3cnc(Sc4ccnc(N)c4Cl)c(N)n3)CC2)C1N and print it.
**A:** 26.7%

**Q:** Retrieve viability, T/C measured for CC(C)n1nc(-c2ccc3oc(N)nc3c2)c2c(N)ncnc21 + CC1OCC2(CCN(c3cnc(Sc4ccnc(N)c4Cl)c(N)n3)CC2)C1N and print it.
**A:** 11.8%

**Q:** Retrieve viability, T/C measured for CC(=O)Nc1cccc(-n2c(=O)n(C3CC3)c(=O)c3c(Nc4ccc(I)cc4F)n(C)c(=O)c(C)c32)c1 + C=CC(=O)N1CCN(c2nc(OCC3CCCN3C)nc3c2CCN(c2cccc4cccc(C)c24)C3)CC1CC#N and print it.
**A:** 19.3%
